Test: Peptide stability in simulated gastric fluid (SGF)
Format: in vitro ADME
Details: pig, simulated gastric fluid (SGF) with porcine pepsin (3.2 g/L), pH 1.2, 10 µM, 37 °C, porcine pepsin, pH 1.2, 1 h; read-out: SGF (% remaining 1 h)
Where a SMILES comes first, the peptide text is derived from it. Bridges are numbered along the chain shown (N, C = ends). [ ]: non-standard residue; d: D form. 2Nal = N[C@@H](Cc1ccc2ccccc2c1)C(=O)O; AEF = NCCOc1ccc(C[C@H](N)C(=O)O)cc1; 3Pal = N[C@@H](Cc1cccnc1)C(=O)O; αMeL = CC(C)C[C@](C)(N)C(=O)O; NMeK = CN[C@@H](CCCCN)C(=O)O; Dab = NCC[C@H](N)C(=O)O; βAla = NCCC(=O)O
Measured remaining at 1 h, 10 µM, listed per entry.
Answer with a number only, understood to be in %.

INSERT INTO assay_data (compound, measurement_kind, unit_name, obs_value) VALUES
  ('CNC(=O)[C@H](Cc1cccnc1)NC(=O)[C@H](CCN)NC(=O)[C@@H]1CCC(=O)NCCCC[C@H]2C(=O)NCCC(=O)N[C@@H](Cc3c[nH]c4ccccc34)C(=O)N[C@@H](CCC(N)=O)C(=O)N[C@@H](CCC(=O)N2C)C(=O)N[C@@H](Cc2ccc(OCCN)cc2)C(=O)N[C@@H](Cc2ccc3ccccc3c2)C(=O)N[C@@](C)(CC(C)C)C(=O)N1 [Compound 80] ([NMeK][βAla]WQE[AEF][2Nal][αMeL]E[Dab][3Pal]-NHMe; lactam 1-9, N-5)', 'remaining at 1 h, 10 µM', '%', 107),
  ('CC[C@H](C)[C@@H]1NC(=O)[C@@H]2CCCCNC(=O)CC[C@@H](C(=O)NC3(C(=O)N[C@@H](Cc4cccnc4)C(=O)NC)CCNCC3)NC(=O)[C@](C)(CC(C)C)NC(=O)[C@H](Cc3ccc4ccccc4c3)NC(=O)[C@H](Cc3ccc(OCCN)cc3)NC(=O)[C@H](CCC(=O)N2)NC(=O)[C@H](CCC(N)=O)NC(=O)[C@H](Cc2c[nH]c3ccccc23)NC(=O)[C@H](C(C)C)NC1=O', 'remaining at 1 h, 10 µM', '%', 105);

Input CNC(=O)[C@H](Cc1cccnc1)NC(=O)[C@H](CCN)NC(=O)[C@@H]1CCC(=O)NCCCC[C@@H]2NC(=O)CC[C@H](NC(=O)[C@H](CCC(N)=O)NC(=O)[C@H](Cc3c[nH]c4ccccc34)NC(=O)CNC2=O)C(=O)N[C@@H](Cc2ccc(OCCN)cc2)C(=O)N[C@@H](Cc2ccc3ccccc3c2)C(=O)N[C@@](C)(CC(C)C)C(=O)N1 , output reported remaining at 1 h, 10 µM.
100
